Assay: Cytotoxicity against human MRC5 cells assessed as inhibition of cell viability incubated for 72 hrs by MTT assay
Type: toxicity, cell-based

| smiles-text | IC50 at 72 h |
| --- | --- |
| O=C(Nc1cccc(OCc2cn(-c3ccc(Br)cc3)nn2)c1)Nc1ccc(Cl)c(C(F)(F)F)c1 | 11 µM |
| O=C(Nc1cccc(OCc2cn(-c3ccc(I)cc3)nn2)c1)Nc1ccc(Cl)c(C(F)(F)F)c1 | 6.84 µM |
| O=C(Nc1cccc(OCc2cn(-c3cccc(Br)c3)nn2)c1)Nc1ccc(Cl)c(C(F)(F)F)c1 | 11.9 µM |
| N#Cc1cccc(-n2cc(COc3cccc(NC(=O)Nc4ccc(Cl)c(C(F)(F)F)c4)c3)nn2)c1 | 2.96 µM |
| O=C(Nc1cccc(OCc2cn(-c3ccccc3)nn2)c1)Nc1ccc(Cl)c(C(F)(F)F)c1 | 18.4 µM |
| CNC(=O)c1cc(Oc2ccc(NC(=O)Nc3ccc(Cl)c(C(F)(F)F)c3)cc2)ccn1 | 11.1 µM |
| COc1cccc(-n2cc(COc3cccc(NC(=O)Nc4ccc(Cl)c(C(F)(F)F)c4)c3)nn2)c1 | 8.57 µM |
| O=C(Nc1cccc(OCc2cn(-c3ccc(F)cc3)nn2)c1)Nc1ccc(Cl)c(C(F)(F)F)c1 | 4.74 µM |

###

Test system: HepG2
Assay: Anticancer activity against human HepG2 cells assessed as inhibition of cell viability incubated for 72 hrs by MTT assay
Format: functional, cell-based
Conditions: HepG2, 72 h
We begin with a simple list: items and their reported IC50.

| smiles-text | IC50 / µM |
| --- | --- |
| O=C(Nc1cccc(OCc2cn(-c3cccc(I)c3)nn2)c1)Nc1ccc(Cl)c(C(F)(F)F)c1 | 4.78 |
| COc1cccc(-n2cc(COc3cccc(NC(=O)Nc4ccc(Cl)c(C(F)(F)F)c4)c3)nn2)c1 | 1.31 |
| O=C(Nc1cccc(OCc2cn(-c3ccc(C(F)(F)F)cc3)nn2)c1)Nc1ccc(Cl)c(C(F)(F)F)c1 | 1.8 |
| O=C(Nc1cccc(OCc2cn(-c3ccccc3Br)nn2)c1)Nc1ccc(Cl)c(C(F)(F)F)c1 | 2.81 |

###

We begin with a simple list: items and their reported IC50 at 72 h.
Experiment: Cytotoxicity against human MRC5 cells assessed as inhibition of cell viability incubated for 72 hrs by MTT assay
Assay type: toxicity, cell-based

| smiles-text | measurement-unit | IC50 at 72 h |
| --- | --- | --- |
| CC(C)c1cccc(-n2cc(COc3cccc(NC(=O)Nc4ccc(Cl)c(C(F)(F)F)c4)c3)nn2)c1 | µM | 21.4 |
| O=C(Nc1cccc(OCc2cn(-c3ccccc3C(F)(F)F)nn2)c1)Nc1ccc(Cl)c(C(F)(F)F)c1 | µM | 8.23 |
| N#Cc1ccccc1-n1cc(COc2cccc(NC(=O)Nc3ccc(Cl)c(C(F)(F)F)c3)c2)nn1 | µM | 17.5 |
| O=C(Nc1cccc(OCc2cn(-c3ccccc3I)nn2)c1)Nc1ccc(Cl)c(C(F)(F)F)c1 | µM | 21.9 |

###

Assay: Selectivity index, ratio of IC50 for cytotoxicity against human MRC5 cells to IC50 for anticancer activity against human HepG2 cells
Type: toxicity, cell-based
Details: MRC5 cells versus HepG2 cells, read-out: Ratio IC50
Label scheme, based on selectivity ratio: low bracket (below 4), middle bracket (4 to below 8), high bracket (8 or more)

| smiles-text | assigned-class |
| --- | --- |
| O=C(Nc1cccc(OCc2cn(-c3ccc(I)cc3)nn2)c1)Nc1ccc(Cl)c(C(F)(F)F)c1 | low bracket |
| O=C(Nc1cccc(OCc2cn(-c3cccc(Br)c3)nn2)c1)Nc1ccc(Cl)c(C(F)(F)F)c1 | high bracket |
| N#Cc1cccc(-n2cc(COc3cccc(NC(=O)Nc4ccc(Cl)c(C(F)(F)F)c4)c3)nn2)c1 | low bracket |
| N#Cc1ccccc1-n1cc(COc2cccc(NC(=O)Nc3ccc(Cl)c(C(F)(F)F)c3)c2)nn1 | high bracket |
| O=C(Nc1cccc(OCc2cn(-c3ccccc3)nn2)c1)Nc1ccc(Cl)c(C(F)(F)F)c1 | high bracket |
| O=C(Nc1cccc(OCc2cn(-c3ccc(F)cc3)nn2)c1)Nc1ccc(Cl)c(C(F)(F)F)c1 | low bracket |
| COc1cccc(-n2cc(COc3cccc(NC(=O)Nc4ccc(Cl)c(C(F)(F)F)c4)c3)nn2)c1 | middle bracket |
| O=C(Nc1cccc(OCc2cn(-c3ccccc3I)nn2)c1)Nc1ccc(Cl)c(C(F)(F)F)c1 | middle bracket |
| O=C(Nc1cccc(OCc2cn(-c3ccccc3C(F)(F)F)nn2)c1)Nc1ccc(Cl)c(C(F)(F)F)c1 | low bracket |
| CC(C)c1cccc(-n2cc(COc3cccc(NC(=O)Nc4ccc(Cl)c(C(F)(F)F)c4)c3)nn2)c1 | middle bracket |

###

Tested on: HepG2
Test: Anticancer activity against human HepG2 cells assessed as inhibition of cell viability incubated for 72 hrs by MTT assay
Type: functional, cell-based
Settings: HepG2, 72 h
pIC50: −log10 of the molar value.

| smiles-text | target | pIC50 |
| --- | --- | --- |
| O=C(Nc1cccc(OCc2cn(-c3ccccc3Cl)nn2)c1)Nc1ccc(Cl)c(C(F)(F)F)c1 | HepG2 | 5.71 |
| O=C(Nc1cccc(OCc2cn(-c3ccccc3I)nn2)c1)Nc1ccc(Cl)c(C(F)(F)F)c1 | HepG2 | 5.54 |
| O=C(Nc1cccc(OCc2cn(-c3ccc(I)cc3)nn2)c1)Nc1ccc(Cl)c(C(F)(F)F)c1 | HepG2 | 5.57 |
| O=C(Nc1cccc(OCc2cn(-c3cccc(F)c3)nn2)c1)Nc1ccc(Cl)c(C(F)(F)F)c1 | HepG2 | 5.67 |
| Cc1cccc(-n2cc(COc3cccc(NC(=O)Nc4ccc(Cl)c(C(F)(F)F)c4)c3)nn2)c1 | HepG2 | 5.14 |
